Assay: NCI Yeast Anticancer Drug Screen. Data for the cln2 rad14 strain (AID 165);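 note: 0% = growth equal to vehicle treated cultures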
Details: S. cerevisiae cln2 rad14 strain, at 50.0 µM, active compounds read high
This is part of a sample that, as a whole, favours compounds with a hit. Of some 79,000 tested, about 15% had one in any assay.
ENDPOINT: growth inhibition (%)
Numbers only, in %.

// batch mode: one growth inhibition value per listed entry
1. COc1ccc2c(c1)c(CO)c(CO)c[n+]2[O-]
2. CC1=CC(O)C(Br)C(C)(C)C12CCC(C)(Cl)C(Br)C2 (stereo unspecified)
3. C=C1C(=O)OC2CCC3OC(C)(C)OC3C12 (stereo unspecified)
4. O=C(O)C1CCC(C(=O)O)S1 (stereo unspecified)
5. CCOC(=O)c1ccc(N(N=O)C(C)C)cc1

Ans:
[2.75, 81.8, -16.9, -13.1, -16]

// batch mode: one growth inhibition value per listed entry
1. C=C[C@]1(O)CCC[C@]2(C)C(=O)CCC12C (stereo partly specified)
2. CCCCCCCCCCCCCCCCOc1ccc(OCCCCCCCCCCCCCCC)cc1
3. O=NN(CCCl)C(=S)NC1CCCCC1
4. C/C(=N\NC(=S)NC(C)C)c1nc2ncccc2[nH]1
5. O=C(COc1ccc(Cl)cc1)Nc1cccc([N+](=O)[O-])c1
6. COC(=O)C(C(=O)c1ccccc1)c1ccccc1 (stereo unspecified)
7. CC(=O)Oc1cccc(O)c1
8. O=C(O)Cn1c(=O)ccc2ccccc21

Ans:
1: 10.8; 2: -24.7; 3: 7.2; 4: -28.8; 5: -5.7; 6: 6.35; 7: -22.5; 8: -37.7

// batch mode: one growth inhibition value per listed entry
1. O=C(CNc1ccccc1)c1ccc(O)c(C(=O)O)c1 (tested in a mixture with another compound)
2. CCOC(CCNCC(OCC)OCC)OCC
3. CCOC(=O)/C(OC(C)=O)=C1/C=C(C(=O)c2ccccc2)CCC1
4. CSc1nc(=O)cc(N)n1C

Ans:
[-5.35, -11.1, -4.1, -23.7]

* * *

Test: NCI Yeast Anticancer Drug Screen. Data for the bub3 strain (AID 167)
Conditions: S. cerevisiae bub3 mutant strain, at 50.0 µM, active compounds read high
This is part of a sample that, as a whole, favours compounds with a hit. Of some 79,000 tested, about 15% had one in any assay.
ENDPOINT: growth inhibition (%)
One number for each entry, in %.

Sample answers from the record:
| COMPOUND | QUANTITY UNIT | growth inhibition |
| --- | --- | --- |
| CC(=O)Nc1cc(=O)[nH]c2c1CCC2 | % | -3.6 |
| O=C1C=C2CCCCCCCC(C1)C2 (configuration not stated) | % | -1.15 |
| CCC1CN1C(=O)c1cc(C(=O)N2CC2CC)cc(C(=O)N2CC2CC)c1 (configuration not stated) | % | -5.75 |
| Cc1onc2c1c(=O)n(C)c(=O)n2C | % | -7.45 |

// batch mode: one growth inhibition value per listed entry
1. COc1cc(C(=O)CBr)c(OC)cc1C
2. O=C1c2cc(Cl)ccc2-c2cc(Cl)c(Cl)cc21
3. CCCCCOC(C)(OCCCCC)OCCCCC
4. CC(=O)Nc1cc(C(C)=O)ccc1O

Ans:
1. 2.15
2. -3.45
3. 9.6
4. -14

// batch mode: one growth inhibition value per listed entry
1. CCCCCCCCCCCC[N+]12CC[N+](C)(CC1)CC2
2. O=[N+]([O-])c1ccc(Cl)c(C=NC23CC4CC(CC(C4)C2)C3)c1
3. CCOC(=O)c1nc2ccc(C(F)(F)F)cc2nc1Nc1ccc(Cl)c(Cl)c1
4. Cc1cc(N=Nc2ccc(S(=O)(=O)O)c3ccccc23)ccc1O

Ans:
1. -27.6
2. -22.9
3. -1.35
4. 12.9
